# target-desc: GPR139 (Homo sapiens)
# Sequence (Q6DWJ6 whole entry): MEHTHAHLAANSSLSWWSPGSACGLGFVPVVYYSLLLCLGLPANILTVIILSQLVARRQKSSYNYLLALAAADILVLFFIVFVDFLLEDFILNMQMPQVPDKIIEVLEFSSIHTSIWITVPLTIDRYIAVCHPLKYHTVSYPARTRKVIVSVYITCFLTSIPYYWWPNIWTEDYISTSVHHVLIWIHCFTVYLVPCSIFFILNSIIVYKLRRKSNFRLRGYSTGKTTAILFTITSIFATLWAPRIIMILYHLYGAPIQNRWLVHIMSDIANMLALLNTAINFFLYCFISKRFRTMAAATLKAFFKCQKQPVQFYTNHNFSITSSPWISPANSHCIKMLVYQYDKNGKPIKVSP
# test-summary: GPR139 Agonist titration / agonist counterscreen assay (calcium detection, HEK-GPR139 cells)
# Type: cell-based
# Design: expressed in transfected cells; host or cells: HEK Aequorin cells, Maxcyte transient transfection
# conditions-used: GPR139 Agonist Activity; based on logD
quantity-measured: Lipophilic Efficiency (logD)

[[record]]
compound = "Cc1ccc(CCNC(=O)Cn2cc3c(n2)CCCC3)cc1"
quantity_measured = "Lipophilic Efficiency (logD)"
assay_result = 5.09

[[record]]
compound = "O=C(CN1CCN(Cc2ccccc2Cl)C1=O)NC1CCCCCC1"
quantity_measured = "Lipophilic Efficiency (logD)"
assay_result = 4.03

[[record]]
compound = "CCOC(=O)c1ccc(CSc2nnc(N)s2)cc1"
quantity_measured = "Lipophilic Efficiency (logD)"
assay_result = 4.03

[[record]]
compound = "O=C(CCCOc1ccc(Cl)cc1Cl)NNC(=O)Cc1ccc2c(c1)OCCO2"
quantity_measured = "Lipophilic Efficiency (logD)"
assay_result = 4.06

[[record]]
compound = "O=C(CN1C(=O)NC2(CCCc3ccccc32)C1=O)N1CCCCCC1 (stereo not drawn)"
quantity_measured = "Lipophilic Efficiency (logD)"
assay_result = 4.72

[[record]]
compound = "CCOc1ccc(C(=O)NCCc2ccc(F)cc2)cc1OCC"
quantity_measured = "Lipophilic Efficiency (logD)"
assay_result = 3.09

[[record]]
compound = "CCCc1cc(=O)n2[nH]c(NCc3ccccc3F)nc2n1"
quantity_measured = "Lipophilic Efficiency (logD)"
assay_result = 3.60

[[record]]
compound = "COc1ccc(CNC(=O)Nc2ccc(-c3cn[nH]c3)cc2)cc1.O=C(O)C(F)(F)F"
quantity_measured = "Lipophilic Efficiency (logD)"
assay_result = 4.10

[[record]]
compound = "O=C(Cn1ncc2c(Cl)cccc21)NCCc1ccc(Cl)cc1"
quantity_measured = "Lipophilic Efficiency (logD)"
assay_result = 3.06

